From: patent US7919498B2

Field: pIC50. Provide a value for each of the compounds that follow.
experimental-target: PI3Kδ (Homo sapiens, UniProt O00329)
Construct: Full length p110 subunits of PI3k α, β and δ, N-terminally labeled with polyHis tag; polyHis (N); made in house; host or cells: Sf9 insect cells (baculovirus)
Sequence (O00329 whole entry): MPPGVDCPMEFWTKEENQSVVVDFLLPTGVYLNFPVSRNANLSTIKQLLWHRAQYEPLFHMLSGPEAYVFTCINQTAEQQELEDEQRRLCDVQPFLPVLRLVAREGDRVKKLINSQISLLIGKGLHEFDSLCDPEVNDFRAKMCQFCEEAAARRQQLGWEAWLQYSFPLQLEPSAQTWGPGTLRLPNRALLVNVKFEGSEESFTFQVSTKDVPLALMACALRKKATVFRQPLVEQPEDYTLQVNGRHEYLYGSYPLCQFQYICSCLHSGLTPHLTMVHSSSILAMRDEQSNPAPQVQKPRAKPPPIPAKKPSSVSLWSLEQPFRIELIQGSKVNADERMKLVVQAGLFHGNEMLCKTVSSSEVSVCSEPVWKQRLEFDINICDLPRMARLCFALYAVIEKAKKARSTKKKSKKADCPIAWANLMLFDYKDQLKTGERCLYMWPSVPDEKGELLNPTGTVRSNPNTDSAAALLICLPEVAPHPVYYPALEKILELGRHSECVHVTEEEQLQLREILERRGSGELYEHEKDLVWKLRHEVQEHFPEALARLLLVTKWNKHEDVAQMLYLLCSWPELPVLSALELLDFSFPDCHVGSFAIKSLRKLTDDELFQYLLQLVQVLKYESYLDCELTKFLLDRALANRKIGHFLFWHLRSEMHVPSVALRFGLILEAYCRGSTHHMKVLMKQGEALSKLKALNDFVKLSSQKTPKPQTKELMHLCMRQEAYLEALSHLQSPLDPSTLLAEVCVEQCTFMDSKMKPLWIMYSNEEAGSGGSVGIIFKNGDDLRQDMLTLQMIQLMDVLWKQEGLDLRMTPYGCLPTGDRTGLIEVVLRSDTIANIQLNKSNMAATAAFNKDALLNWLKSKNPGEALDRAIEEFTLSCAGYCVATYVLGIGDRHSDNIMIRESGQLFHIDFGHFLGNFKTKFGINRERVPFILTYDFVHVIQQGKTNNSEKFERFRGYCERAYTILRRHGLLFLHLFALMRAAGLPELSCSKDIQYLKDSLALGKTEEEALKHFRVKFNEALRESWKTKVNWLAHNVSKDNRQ
Sequence (P27986 whole entry partner): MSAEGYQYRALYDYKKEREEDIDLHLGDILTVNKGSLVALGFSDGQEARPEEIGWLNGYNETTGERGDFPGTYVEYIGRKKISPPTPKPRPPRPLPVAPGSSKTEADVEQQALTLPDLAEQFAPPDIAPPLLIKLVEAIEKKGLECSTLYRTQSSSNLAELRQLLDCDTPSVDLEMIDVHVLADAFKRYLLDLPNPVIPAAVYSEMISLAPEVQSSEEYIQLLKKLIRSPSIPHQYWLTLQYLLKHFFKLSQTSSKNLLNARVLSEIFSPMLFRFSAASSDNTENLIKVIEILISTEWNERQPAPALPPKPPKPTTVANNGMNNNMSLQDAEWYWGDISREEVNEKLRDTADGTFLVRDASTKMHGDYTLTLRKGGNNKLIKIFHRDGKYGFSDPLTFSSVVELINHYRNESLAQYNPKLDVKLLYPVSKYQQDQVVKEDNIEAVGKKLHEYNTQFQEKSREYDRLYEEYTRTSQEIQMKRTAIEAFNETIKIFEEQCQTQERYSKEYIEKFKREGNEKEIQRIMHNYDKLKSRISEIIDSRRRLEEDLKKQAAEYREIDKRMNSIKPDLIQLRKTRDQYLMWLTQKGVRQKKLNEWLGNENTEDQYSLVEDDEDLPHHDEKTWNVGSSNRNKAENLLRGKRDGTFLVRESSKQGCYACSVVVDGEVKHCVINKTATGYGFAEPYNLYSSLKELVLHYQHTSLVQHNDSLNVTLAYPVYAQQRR
method-description: In vitro enzyme assay of PI3Kδ (residual ATP bioluminescence)
Format: biochemical
One number for each entry, as −log10 of the molar value.

Example entries and their recorded answers appear below.
Using the record for Nc1ncnc2c1c(=O)ccn2Cc1cc2cccc(Cl)c2nc1-c1ccccc1Cl [Example 22] , state its measured pIC50.
7.48

Check the records and state pIC50 for Cc1ccccc1-c1nc2c(C)cccc2cc1Cn1nc(I)c2c(N)ncnc21 [Example 4]
8.22

Indicate the recorded pIC50 value for this compound: Cc1cccc2cc(Cn3cnc4c(N)ncnc43)c(-c3ccccc3Cl)nc12 [Example 1]
5.67

Okay, now this compound:
Answer with the recorded pIC50 for the compound listed here: Cc1cccc2nc(Cn3nc(-c4cn[nH]c4)c4c(N)ncnc43)c(-c3ccccc3Cl)nc12 [Example 18]
7.52
